Hello, the source for this data is patent US9340577B2, in case you need it.

# measuredTarget: DRB1*1101 (Homo sapiens, UniProt P01903+P01911, A100R/A169T/A87E/I96F/K41T/L162R/M171V/P40S/Q125H/Q178H/Q39Y/Q99D/R42S/S66Y/T262R/V115G/W38E)
# Sequence (P01903 26-254 limits assumed, other chains not shown): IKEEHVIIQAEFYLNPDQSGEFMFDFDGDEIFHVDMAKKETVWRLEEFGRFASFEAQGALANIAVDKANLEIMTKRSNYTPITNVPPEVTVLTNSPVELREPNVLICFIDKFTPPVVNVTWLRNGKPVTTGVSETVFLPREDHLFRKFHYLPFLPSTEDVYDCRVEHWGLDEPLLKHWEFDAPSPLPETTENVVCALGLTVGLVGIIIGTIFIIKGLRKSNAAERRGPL
# test: biochemical
# conditionDetails: Binding affinity DRB1 *1101
No end group written: not given here.
Reported IC50 by item:
recordedMetric: IC50

{"sequenceCode": "LIRMECALLYTAKQM [Peptide 89.0179]", "recordedMetric": "IC50", "result": "> 20 µM"}
{"sequenceCode": "EVHMENESIYCPDSV [Peptide 90.0238]", "recordedMetric": "IC50", "result": "> 20 µM"}
{"sequenceCode": "PRWLCAGALVLAGGF [Peptide 68.0083]", "recordedMetric": "IC50", "result": "> 20 µM"}
{"sequenceCode": "GRVNTHVHNPLLCSS [Peptide 1601.34]", "recordedMetric": "IC50", "result": "> 20 µM"}
{"sequenceCode": "IHFIQGAVISFVNST [Peptide 89.0037]", "recordedMetric": "IC50", "result": "> 20 µM"}
{"sequenceCode": "TVEVQFDGDICNTMH [Peptide 90.0167]", "recordedMetric": "IC50", "result": "> 20 µM"}
{"sequenceCode": "LSQRLNVCQDKILEH [Peptide 1601.21]", "recordedMetric": "IC50", "result": "> 20 µM"}
{"sequenceCode": "LIQLKCPPILLTTNI [Peptide 89.0038]", "recordedMetric": "IC50", "result": "> 20 µM"}
{"sequenceCode": "DGVSHAQLPARRAEP [Peptide 1543.18]", "recordedMetric": "IC50", "result": "> 20 µM"}
{"sequenceCode": "HQVVPALSVSKAKAL [Peptide 89.0169]", "recordedMetric": "IC50", "result": "> 20 µM"}
{"sequenceCode": "EVQIALESLSTTIYN [Peptide 90.0231]", "recordedMetric": "IC50", "result": "> 20 µM"}
{"sequenceCode": "TYISTSQRDDFLNTV [Peptide 1601.27]", "recordedMetric": "IC50", "result": "> 20 µM"}
{"sequenceCode": "GGDWKQIVMFLRYQG [Peptide 89.0013]", "recordedMetric": "IC50", "result": "0.198 µM"}
{"sequenceCode": "FIHFLQGAIISFVNS [Peptide 89.0088]", "recordedMetric": "IC50", "result": "5.6 µM"}
{"sequenceCode": "CWNYIDDNLRNALDG [Peptide 90.0041]", "recordedMetric": "IC50", "result": "> 20 µM"}
{"sequenceCode": "GKSYFGMSLIQFLKG [Peptide 89.0075]", "recordedMetric": "IC50", "result": "2.96 µM"}

###

Reported IC50 by item:
# measuredTarget: A31 (A*3101) (Homo sapiens, UniProt P04439, A270S/D185E/E176V/E277Q/F33T/G231S/G80R/H175R/I121M/I218V/I322F/K168Q/L300P/L318F/M331R/P217A/Q94H/R138Q/T323A/T345S/T97I/V358M)
# test: biochemical
# Format: binding
No end group written: not given here.

{"sequenceCode": "ESKKEVESK [Peptide 9017.0083]", "IC50": "> 20 µM"}
{"sequenceCode": "ESKKKVESK [Peptide 9017.0082]", "IC50": "> 20 µM"}
{"sequenceCode": "YLTAPTGCLK [Peptide 1589.15]", "IC50": "> 20 µM"}
